experiment: chemical genetic growth profiling, strain panel (AID 1159580);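 also: tested at 20 µM; growth read once vehicle control cultures reached saturation at 30 °C; 1 = growth at the plate median or of vehicle wells; lower values mean less growth of the strain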; settings: S. cerevisiae deletion strains, growth OD, locus YEL003W, strain gim4, active compounds read low
Out of some 5,500 compounds screened, about 2,000 (36%) were called active. Inconclusive results (about 18%) are left out. Some of the results follow.
quantity_kind: normalized growth
One number for each entry.

Please review the following examples before continuing.
Item: CNC(=O)Oc1ccc2c(c1)[C@]1(C)CCN(C)[C@@H]1N2C | normalized growth: 1.01

// normalized growth lookup, compound = CC(=O)Nc1nnc(S(N)(=O)=O)s1 , result: 1.01

// normalized growth value for C=C1C2CC[C@@]3(C)[C@H](c4ccoc4)OC(=O)C[C@]13O[C@H]1CC(=O)C(C)(C)C(CC(=O)OC)[C@@]21C (stereo partly specified) : 0.979

Reported normalized growth ( CC(CCC(=O)O)[C@H]1CCC2C3C(C[C@H](O)[C@@]21C)[C@@]1(C)CC[C@@H](O)C[C@H]1C[C@H]3O (stereo partly specified) ) = 1.02

The compound listed as CN[C@@H]1[C@H](OC2[C@H](O[C@H]3[C@H](O)[C@@H](O)[C@H](N=C(N)N)[C@@H](O)[C@@H]3N=C(N)N)O[C@@H](C)[C@]2(O)C=O)O[C@@H](CO)[C@H](O)[C@H]1O (stereo partly specified) shows normalized growth equal to 1.01

Dear reader, for each entry below, please note its normalized growth.
1. NCC(CC(=O)O)c1ccc(Cl)cc1 (stereo unspecified)
2. CN(C)CCC(c1ccc(Br)cc1)c1ccccn1 (stereo unspecified)
3. CC(CCC(=O)O)[C@H]1CCC2C3C[C@H](O)[C@@H]4C[C@H](O)CC[C@]4(C)C3CC[C@@]21C (stereo partly specified)
4. CC[C@H](CCC(C)[C@H]1CCC2C3CCC4C[C@@H](O)CC[C@]4(C)C3CC[C@@]21C)C(C)C (stereo partly specified)

### Response
1. 0.996
2. 0.969
3. 1.01
4. 0.991

# map each compound to its normalized growth
1. CC(CCC(=O)O)[C@H]1CCC2C3CC[C@@H]4C[C@H](O)CC[C@]4(C)C3C[C@H](O)[C@@]21C (stereo partly specified)
2. CC(=O)Nc1ccccc1
3. CN(C)CCOC(=O)C(c1ccccc1)C1(O)CCCC1 (stereo unspecified)

### Response
1.03
0.973
0.978

State the recorded normalized growth for every item in the following list.
1. CN(CCC(N)CC(=O)N[C@H]1C=CC(n2ccc(N)nc2=O)O[C@@H]1C(=O)O)C(=N)N (stereo partly specified)
2. CC(CN1c2ccccc2Sc2ccccc21)N(C)C (stereo unspecified)

### Response
0.919
0.926

* * *

experiment: chemical genetic growth profiling, strain panel (AID 1159580);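 also: tested at 20 µM; growth read once vehicle control cultures reached saturation at 30 °C; 1 = growth at the plate median or of vehicle wells; lower values mean less growth of the strain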; conditions: S. cerevisiae deletion strains, growth OD, locus YNL322C, strain KRE1 (second series), active compounds read low
In all, about 5,500 compounds went through this assay and about 2,000 (36%) were called active. Inconclusive results (about 18%) are left out. Some of the results follow.
Could you please report measured normalized growth for the items listed next?
Numbers only.

So, CC1=C2[C@H]3OC(=O)[C@@H](C)[C@@H]3CC[C@@]2(C)C=CC1=O ? Its normalized growth was 0.954

Kindly give each listed record's normalized growth.
1. Nc1ccn(C2O[C@H](CO)[C@@H](O)[C@H]2O)c(=O)n1 (stereo not given in full)
2. O=C(O)c1ccccc1C(=O)Nc1ccc(S(=O)(=O)Nc2nccs2)cc1
3. O=C(O)CCC(=O)Nc1ccc(S(=O)(=O)Nc2nccs2)cc1
4. CNC(=O)Oc1ccc2c(c1)[C@]1(C)CCN(C)[C@@H]1N2C

### Response
1.01
0.945
0.966
1.02
